Cathepsin S (Homo sapiens, UniProt P25774): recorded pIC50 for assorted compounds
Sequence (P25774 whole entry): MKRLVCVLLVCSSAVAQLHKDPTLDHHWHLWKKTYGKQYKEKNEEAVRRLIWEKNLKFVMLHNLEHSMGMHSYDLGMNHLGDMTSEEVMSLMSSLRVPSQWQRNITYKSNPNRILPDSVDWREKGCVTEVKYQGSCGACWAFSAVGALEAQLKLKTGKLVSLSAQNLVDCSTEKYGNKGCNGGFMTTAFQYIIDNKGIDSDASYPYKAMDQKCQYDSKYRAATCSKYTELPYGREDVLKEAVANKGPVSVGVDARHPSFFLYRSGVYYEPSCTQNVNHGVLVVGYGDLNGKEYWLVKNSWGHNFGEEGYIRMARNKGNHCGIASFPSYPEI
For clarity, pIC50 is expressed as the negative log10 of concentration in mol/L.

Compound	pIC50
N#Cc1nc(-c2ccc(OCCC3CCN(C(CF)CF)CC3)c(C#N)c2)c2ccn(CC3CCOC3)c2n1 (stereo not drawn)	8.05

Per the reported Cathepsin S (Homo sapiens, UniProt P25774) data, `CCn1ccc2c(-c3ccc(OCCC4CCNCC4)c(C(F)(F)F)c3)nc(C#N)nc21` has pIC50 of 8.52

Per the reported Cathepsin S (Homo sapiens, UniProt P25774) data, `CCN1CCN(C(=O)COc2ccc(-c3nc(C#N)nc4c3ncn4C)cc2C(F)(F)F)CC1` has pIC50 of 8.59
